Molecular target: T1, CD96 extracellular region with His tag (CD96-His) (human, UniProt P40200 22-519)
T1 construct: also called CD96-ECD-His; Bio-CD96-His (biotin-labelled form)
T1 sequence: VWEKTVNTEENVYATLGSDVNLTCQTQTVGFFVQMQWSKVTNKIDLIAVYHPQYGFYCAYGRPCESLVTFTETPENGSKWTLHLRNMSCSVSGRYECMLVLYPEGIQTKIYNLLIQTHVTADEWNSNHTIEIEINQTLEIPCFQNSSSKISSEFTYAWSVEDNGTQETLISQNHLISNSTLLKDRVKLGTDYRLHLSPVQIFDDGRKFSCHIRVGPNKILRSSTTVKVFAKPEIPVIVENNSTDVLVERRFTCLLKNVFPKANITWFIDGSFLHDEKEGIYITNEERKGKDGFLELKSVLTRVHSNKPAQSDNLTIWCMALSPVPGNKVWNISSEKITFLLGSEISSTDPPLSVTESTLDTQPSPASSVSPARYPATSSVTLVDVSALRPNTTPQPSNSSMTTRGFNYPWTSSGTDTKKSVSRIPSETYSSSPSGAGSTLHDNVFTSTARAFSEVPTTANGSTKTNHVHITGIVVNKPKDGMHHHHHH
Test: SPR (Biacore), antibody captured, CD96-ECD-His as mobile phase
quantity-name: pKd
# pKd: negative log10 of molar concentration; output just the value

Example cases with answers are listed next.
binder	number
ch1718 (antibody, human IgG4 S228P, kappa, V domains shown, also called chimeric antibody corresponding to m1718) VH: EFQLQQSGPELVKPGASVKISCKASAYSITDYNMNWVKQSNGKSLEWIGVINPSYGITDYNQNFKDKATLTVDQSSSTAYMQLNSLTSEDSAVYYCAIQLRLPGYFDVWGTGTTVIVSS VL: DIKMTQSPSSMYASLGERVTITCKASQDINNYLNWFQQKPGKSPKTLIYRANRLVDGVPSRFSGSGSGQDYSLTISSLEYEDMGIYYCLKYDEFPYTFGGGTKVEIKR	8.48
ch1720 (antibody, human IgG4 S228P, kappa, V domains shown, also called chimeric antibody corresponding to m1720) VH: EFQLQQSGPELVKPGASVKISCKASAYSLTDYNMNWVKQSNGKSLEWIGVINPSYGISSYNQKFKGKATLTVDQSSSTAYMHLNSLTSEDSAVYYCARQLRLPGYFDVWGTGTTVTVSS VL: DIKMTQSPSSKNASLGERVTITCKASQDINSYLNWFQQKPGKSPKTLIYRASRLVDGVPSRFSGSGSGQDYSLTISSLEYEDMGIYYCLKYDEFPYTFGGGTKLEIKR	8.87
h1722-008 (antibody, V domains shown, Only variable regions are tied to this name) VH: EVQLVQSGAEVKKPGSSVKVSCKASGNTFSDYWMHWVKQAPGQGLEWIGMLHPNSGTTSFNEKFKIRTTITIDKSTSTAYMELSSLRSEDTAVYYCASDYSGPFAYWGQGTLVTVSS VL: DIQMTQSPSSLSASVGDRVTITCSASSSVNYIHWYQQKPGKAPKRWIYDTSKLASGVPSRFSGSGSGTDFTLTISSLQPEDFATYYCQQWRSNPLTFGQGTKLEIK	9.00

So, h1721-006 (antibody, V domains shown, Only variable regions are tied to this name) VH: EVTLKESGPVLVKPTETLTLTCTVSGFSLSSYGVNWIRQPPGKALEWLGVIWGDGSTNYHSALISRLTISKDTSKSQVVLTMTNMDPVDTATYYCAKNYFYGSRYGYAMDSWGQGTTVTVSS VL: DIQMTQSPSSLSASVGDRVTITCRASENIYSSLAWYQQKPGKAPKLLVYNAKTLIEGVPSRFSGSGSGTDYTLTISSLQPEDFATYYCQHHYGTPYTFGGGTKVEIK ? Its pKd was 8.64

So, ch1722 (antibody, human IgG4 S228P, kappa, V domains shown, also called chi722; chimeric antibody corresponding to m1722) VH: QVQLQQPGAELVKPGTSVKLSCKASGNTFIDYWMHWVKQRPGQGLEWIGMLHPNSGTTSFNEKFKIKTTLTIDKSSSTAYMQLSSLTSEDSAIYYCASDYSGPFAYWGQGTLVTVSA VL: QIVLTQSPGIMSAFPGEKVTMTCSASSSVNYIHWYQQKSGTSPKRWIFDTSKLASGVPARFSGSGSGTSYSLTISSMEAEDAATYYCQQWRSNPLTFGAGTKLELKR ? Its pKd was 8.98
